Values were extracted from patent US7544689B2.

ASSAY_TARGET: CDK4/cyclin D1 (Homo sapiens, UniProt P11802)
Construct: His6; cyclin D1: E. coli
Sequence (P11802 whole entry): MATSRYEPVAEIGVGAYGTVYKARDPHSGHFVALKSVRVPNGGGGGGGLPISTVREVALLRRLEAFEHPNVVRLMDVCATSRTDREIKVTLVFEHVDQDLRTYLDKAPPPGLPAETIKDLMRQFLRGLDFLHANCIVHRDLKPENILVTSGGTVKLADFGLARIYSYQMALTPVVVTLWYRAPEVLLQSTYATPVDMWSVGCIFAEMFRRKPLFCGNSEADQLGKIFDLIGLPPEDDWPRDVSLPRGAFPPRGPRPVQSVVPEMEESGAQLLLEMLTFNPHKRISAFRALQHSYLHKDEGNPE
Sequence (P24385 whole entry partner): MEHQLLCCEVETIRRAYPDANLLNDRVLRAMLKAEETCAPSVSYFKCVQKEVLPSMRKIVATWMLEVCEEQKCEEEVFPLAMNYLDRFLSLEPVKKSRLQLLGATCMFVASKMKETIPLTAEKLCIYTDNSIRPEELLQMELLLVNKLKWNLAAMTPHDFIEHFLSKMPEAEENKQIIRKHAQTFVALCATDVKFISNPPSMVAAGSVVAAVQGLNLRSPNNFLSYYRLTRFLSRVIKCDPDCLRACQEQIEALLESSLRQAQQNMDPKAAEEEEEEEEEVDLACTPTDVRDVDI
PROTOCOL_DESCRIPTION: Kinase assay, CDK4/cyclin D1 inhibition
Field: pIC50. Provide a value for each of the compounds that follow.
Convention used: pIC50 is expressed as -log10 of the molar concentration.

q: Which value of pIC50 has been reported for `CC[C@@H](Nc1nc(NCc2ccccn2)c2ncn(C(C)C)c2n1)C(C)(C)O` in the records?
a: 4.74

q: Which value of pIC50 has been reported for CC[C@@H](Nc1nc(NCc2ccccn2)c2ncn(C(C)C)c2n1)C(O)C(C)C (mixture of isomers) in the records?
a: 4.49

q: Which value of pIC50 has been reported for CC[C@@H](Nc1nc(NCc2ccccn2)c2ncn(C(C)C)c2n1)C(O)C(C)(C)C (mixture of isomers) in the records?
a: 4.42

q: Which value of pIC50 has been reported for `CC[C@H](Nc1nc(NCc2ccccn2)c2ncn(C(C)C)c2n1)[C@@H](C)O` in the records?
a: 4.74

q: Which value of pIC50 has been reported for `CC[C@@H](Nc1nc(NCc2ccccn2)c2ncn(C(C)C)c2n1)[C@H](C)O` in the records?
a: 4.32
